biological target: Trace amine-associated receptor 1 (Homo sapiens); test: human TAAR1 antagonists, retest of hits, confirmation, cell-based, fluorescence (AID 651785); conditions: TAAR1-expressing cells, fluorescence antagonist read-out; at 3 µM;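 further: CHO-Ga16 host cells challenged with agonist PEA near its EC80; 0% = agonist at EC80 plus vehicle and 100% = vehicle with no agonist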
About 950 (40%) of roughly 2,400 compounds were called active. No stated cut-off is given here; in the data, active means inhibition above about 49%; inactive means the rest. A selection follows.
Bench note: report the call from 1 (yes) = active, 0 (no) = inactive

What did the test return for `COc1ccc(NC(=O)c2cc(-c3ccc(C)o3)nc3ccccc23)cc1` ?
0 (no)

What did the test return for `O=C(NCCN1C(=O)S/C(=C\c2cccnc2)C1=O)c1ccc(S(=O)(=O)N2CCCC2)cc1` ?
0 (no)

What did the test return for `COc1cc(/C=C2/C(=O)ON=C2C)ccc1OCc1ccccc1F` ?
1 (yes)

What did the test return for `CCOc1ccc(NC(=O)N2CC=C(n3c(=O)[nH]c4ccccc43)CC2)cc1` ?
0 (no)

What did the test return for `COc1ccc(-c2cc(C(=O)N(C)Cc3ccc(OC)c(OC)c3OC)c3ccccc3n2)cc1OC` ?
1 (yes)

What did the test return for `O=S1(=O)c2c(cccc2N2CCCCC2)O[C@H](COCc2ccccc2)CN1C1CC1` ?
0 (no)

What did the test return for `CC(=O)N1CCN(C(=O)c2cc(-c3ccc(Cl)s3)nc3ccccc23)CC1` ?
0 (no)

What did the test return for `COc1ccc(-c2cc(C(=O)N(C)Cc3ccccc3)c3ccccc3n2)cc1` ?
0 (no)

What did the test return for `Cc1cccc(NC(=O)c2ccc(COc3ccccc3[N+](=O)[O-])o2)n1` ?
0 (no)

What did the test return for `CC(C)(C)OC(=O)NCCCCCNC(=O)c1nc[nH]c1C(=O)NCc1ccccc1` ?
0 (no)

What did the test return for `COc1ccc(CN(C)C(=O)c2cc(-c3ccc(C)cc3C)nc3ccccc23)c(OC)c1OC` ?
1 (yes)

What did the test return for `CN(c1ccccc1)S(=O)(=O)c1cc(C(=O)Nc2nc3ccccc3[nH]2)ccc1Cl` ?
1 (yes)

What did the test return for `O=C(COC(=O)c1c2c(nc3ccccc13)CCCC2)c1ccc(Br)s1` ?
0 (no)

What did the test return for `COc1ccc(C(=O)Nc2cccc(NC(=O)c3ccc(OC)cc3OC)n2)c(OC)c1` ?
0 (no)

What did the test return for `O=C(NCc1ccc2c(c1)OCO2)c1c(-c2ccsc2)sc2ccccc12` ?
0 (no)

What did the test return for `COc1cc2ccccc2cc1C(=O)Nc1ccc(NC(=O)c2cccs2)cc1` ?
0 (no)

What did the test return for CCc1ccc2c(c1)NC(=O)C2(C)Cc1ccc(OC(F)(F)F)cc1 (centres undefined) ?
0 (no)

What did the test return for `COc1ccc(-c2cc(C(=O)Nc3ccccc3O)c3ccccc3n2)cc1` ?
1 (yes)

What did the test return for `COc1ccc(-c2nn(-c3ccccc3)cc2C(=O)Nc2nccs2)cc1OC` ?
0 (no)

###

biological target: Trace amine-associated receptor 1 (Homo sapiens) (UniProt Q96RJ0); test: human TAAR1 antagonists, retest of hits, confirmation, cell-based, fluorescence (AID 651785); details: TAAR1-expressing cells, fluorescence antagonist read-out; at 3 µM;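 further: CHO-Ga16 host cells challenged with agonist PEA near its EC80; 0% = agonist at EC80 plus vehicle and 100% = vehicle with no agonist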
Sequence (Q96RJ0 whole entry, looked up, the tested form may be a part): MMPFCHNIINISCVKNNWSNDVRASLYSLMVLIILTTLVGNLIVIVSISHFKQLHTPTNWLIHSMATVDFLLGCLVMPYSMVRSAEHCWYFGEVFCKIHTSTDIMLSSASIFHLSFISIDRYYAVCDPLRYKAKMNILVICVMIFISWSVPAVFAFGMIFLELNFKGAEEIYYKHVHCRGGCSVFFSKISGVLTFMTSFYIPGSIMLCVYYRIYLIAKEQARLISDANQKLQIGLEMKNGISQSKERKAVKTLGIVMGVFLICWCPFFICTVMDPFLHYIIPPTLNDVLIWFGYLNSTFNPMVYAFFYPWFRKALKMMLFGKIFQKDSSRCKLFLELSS
In all, about 2,400 compounds went through this assay and about 950 (40%) were called active. Rule as the data show it: active = inhibition above about 49%; inactive = the rest. The list is a sample of the results.
Bench note: report the call from y = active, n = inactive

What did the test return for `COc1ccc2[nH]c(=O)c(CN(Cc3cccnc3)S(=O)(=O)c3ccccc3F)cc2c1` ?
y

What did the test return for COc1ccc(CCNC(=O)C(=O)NCC2OCCN2S(=O)(=O)c2ccc(OC)c(C)c2)cc1 (stereo not given) ?
n

What did the test return for `Cc1ccc2c(c1)N(CC(=O)NCCc1ccc(Cl)cc1)C(=O)c1cccnc1O2` ?
y

What did the test return for `COc1ccc(Cl)cc1NC(=O)CCS(=O)(=O)c1cc2c(cc1C)NC(=O)CO2` ?
n

What did the test return for `COC(=O)Cc1nnn2c1[C@H](C)[C@H](c1ccccc1[N+](=O)[O-])OCC2` ?
n

What did the test return for `CNC(=O)c1ccsc1NC(=O)c1ccc(S(=O)(=O)N2CCc3ccccc32)cc1` ?
n

What did the test return for `O=C(CCc1ccccc1)Nc1cccc(-c2nnc(-c3ccco3)o2)c1` ?
y

What did the test return for `COc1ccc(C(=O)Oc2ccc(-c3nnco3)cc2)cc1S(=O)(=O)N1CCOCC1` ?
n

What did the test return for `CCC(=O)Oc1cccc(C(=O)Nc2ccc(-c3nnc(-c4ccco4)o3)cc2)c1` ?
n

What did the test return for `CC(=O)c1ccccc1OCc1ccc(C(=O)c2ccccc2)cc1` ?
y

What did the test return for `COc1ccc(/C=C/C(=O)Nc2ccc(C34CC5CC(CC(O)(C5)C3)C4)cc2)cc1OC` ?
y

What did the test return for `COc1ccc(OC)c2[nH]c(=O)c(CCNC(=O)C(=O)c3c[nH]c4ccccc34)cc12` ?
y

What did the test return for `COc1ccc(CCNC(=O)c2ccc(CS(=O)(=O)c3ccc(Br)cc3)o2)cc1OC` ?
y

What did the test return for `COc1ccc(N(CC(=O)N/N=C/c2cccs2)S(=O)(=O)c2ccc(OC)c(OC)c2)cc1` ?
n

What did the test return for CCOc1ccc(N2CC(C(=O)N/N=C/c3sccc3C)CC2=O)cc1 (stereo not given) ?
n

What did the test return for `Fc1ccc(/C=N/Nc2nc(-c3cccnc3)nc3ccccc23)cc1` ?
n

What did the test return for `O=C(Nc1ccccc1-c1nnn(CC(=O)N2CCN(c3ccccc3)CC2)n1)c1cccs1` ?
y

What did the test return for `Cc1cc(C(C)(C)C)oc1C(=O)N(CC(=O)NC1CCCC1)Cc1ccc(Cl)cc1` ?
n

What did the test return for `CC(=O)n1cc([C@H]2C=C(C(=O)N3CCOCC3)O[C@@H](OCc3ccc(CO)cc3)C2)c2ccccc21` ?
n

What did the test return for `Cc1cccc(C)c1NC(=O)CNC(=O)C1CCCC1` ?
n

What did the test return for `Cc1ccccc1NC(=O)Cc1nc(COC(=O)C(C)(C)Oc2ccc(Cl)cc2)cs1` ?
y

What did the test return for `CC(C)N(Cc1ccccc1)C(=O)COC(=O)c1ccccc1SCC(=O)N1CCCC1` ?
y

What did the test return for `CSC(=S)N/N=C/c1c[nH]c2ccccc12` ?
y

What did the test return for `Clc1ccc(Nc2ncnc3c2nnn3Cc2ccccc2)cc1` ?
n

What did the test return for `COc1ccc(S(=O)(=O)N(CC(=O)NCc2ccco2)c2ccc(F)cc2)cc1` ?
n

What did the test return for `O=C(COC(=O)c1ccccc1SCC(=O)N1CCCC1)Nc1ccccc1OC(F)F` ?
y

What did the test return for `O=C1c2ccccc2C(=O)N1CCC#Cc1ccc2cc(C3(O)CCCCC3)oc(=O)c2c1` ?
y

What did the test return for `Cc1nc(N2CCN(c3ccccn3)CC2)c2c(C)c(C(=O)Nc3ccc(F)cc3)sc2n1` ?
y

What did the test return for `C=CCC[C@@H](Cc1ccc(F)cc1)C(=O)O[C@H](CNC(=O)[C@H](CC=C)CC(=O)N(CCO)Cc1ccccc1)c1ccccc1` ?
y

What did the test return for `Cc1ccccc1OCC(=O)Nc1ccc(N2CCN(C(=O)C(C)C)CC2)c(Cl)c1` ?
y

What did the test return for `C/C(=N\Nc1ncc(Cl)cc1Cl)c1ccc(S(=O)(=O)NCc2ccco2)cc1` ?
n

What did the test return for `C=CCn1c(SCc2cccc(F)c2)nc2cc(C(=O)N3CCC(C(N)=O)CC3)ccc2c1=O` ?
n

What did the test return for `CSc1nc(-c2ccccc2)nc(C(Cl)Cl)n1` ?
n

What did the test return for `Cc1ccc2cccc(OCCCOc3ccccc3CO)c2n1` ?
n

What did the test return for NNC(=O)CNC(c1ccccc1)c1cc(Cl)ccc1NC(=O)c1ccccc1 (stereo not given) ?
n

What did the test return for `Cc1ccc(C)c(N2CCN(C(=O)CCCCCn3c(=S)[nH]c4ccc(N5CCOCC5)cc4c3=O)CC2)c1` ?
y

What did the test return for `C[C@@H]1CN([C@@H](C)CO)S(=O)(=O)c2ccc(C#Cc3cccc(F)c3)cc2O[C@H]1CN(C)S(=O)(=O)c1cn(C)cn1` ?
y

What did the test return for `CC/C(=N/Nc1ccccc1)c1cnnc(SC)n1` ?
n

What did the test return for `Cn1c2ccccc2c(=O)c2c(=O)n(Cc3ccco3)c(COc3ccccc3)nc21` ?
y

What did the test return for `O=C(Oc1ccc(-c2nnco2)cc1)c1ccc(F)c(S(=O)(=O)N2CCOCC2)c1` ?
y

###

molecular target: Trace amine-associated receptor 1 (Homo sapiens) (UniProt Q96RJ0); experiment: human TAAR1 antagonists, retest of hits, confirmation, cell-based, fluorescence (AID 651785); settings: TAAR1-expressing cells, fluorescence antagonist read-out; at 3 µM; stronger effect = higher value;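 further: CHO-Ga16 host cells challenged with agonist PEA near its EC80; 0% = agonist at EC80 plus vehicle and 100% = vehicle with no agonist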
The whole screen tested about 2,400 compounds, of which about 950 (40%) were called active. Not all results are given here.
MEASURED_QUANTITY: inhibition (%)
# number only, unit % dropped from output

What value of inhibition has been reported for the following compound? `O=C(N/N=C/c1ccc(Cl)c(Cl)c1)c1ccc2nc[nH]c2c1`
52.9

What value of inhibition has been reported for the following compound? `Cc1onc(-c2c(F)cccc2Cl)c1C(=O)Nc1cccc(S(=O)(=O)N2CCCCC2)c1`
46

What value of inhibition has been reported for the following compound? COc1ccc(S(=O)(=O)N2CCCC(C(=O)Nc3ccc(NC(=O)c4ccccn4)cc3)C2)cc1 (stereo not given)
56.2

What value of inhibition has been reported for the following compound? `C=CCc1cc(S(=O)(=O)c2ccc(O)c(CC=C)c2)ccc1O`
26.4

What value of inhibition has been reported for the following compound? `Oc1ccccc1N1CCN(c2ncnc3sc(-c4ccccc4)cc23)CC1`
47.6

What value of inhibition has been reported for the following compound? `CCOc1cc(/C=N/NC(=O)c2cc(-c3ccccc3)nc3ccccc23)ccc1O`
44.9

What value of inhibition has been reported for the following compound? `COC(=O)[C@@]1(Sc2ccc(C)cc2)CC(=O)N(c2cccc(SC)c2)[C@@H]1c1ccccc1`
47.3

What value of inhibition has been reported for the following compound? CSc1ncnc2c1ncn2CC(=O)C1CCC2C3CCC4=CC(=O)CCC4(C)C3CCC12C (stereo not given)
61.9

What value of inhibition has been reported for the following compound? `CCNS(=O)(=O)c1ccc(CCC(=O)N2CCN(c3cc(Cl)ccc3C)CC2)cc1`
50.4

What value of inhibition has been reported for the following compound? O=C(NCCN1CCOCC1)c1ccccc1N1C(=O)[C@@H]2Cc3c([nH]c4ccccc34)C(c3cccc(Cl)c3)N2C1=O (stereo not given in full)
39.5
